Measurement Target: EPHB2 (UniProt P29323)
Sequence (P29323 whole entry, looked up): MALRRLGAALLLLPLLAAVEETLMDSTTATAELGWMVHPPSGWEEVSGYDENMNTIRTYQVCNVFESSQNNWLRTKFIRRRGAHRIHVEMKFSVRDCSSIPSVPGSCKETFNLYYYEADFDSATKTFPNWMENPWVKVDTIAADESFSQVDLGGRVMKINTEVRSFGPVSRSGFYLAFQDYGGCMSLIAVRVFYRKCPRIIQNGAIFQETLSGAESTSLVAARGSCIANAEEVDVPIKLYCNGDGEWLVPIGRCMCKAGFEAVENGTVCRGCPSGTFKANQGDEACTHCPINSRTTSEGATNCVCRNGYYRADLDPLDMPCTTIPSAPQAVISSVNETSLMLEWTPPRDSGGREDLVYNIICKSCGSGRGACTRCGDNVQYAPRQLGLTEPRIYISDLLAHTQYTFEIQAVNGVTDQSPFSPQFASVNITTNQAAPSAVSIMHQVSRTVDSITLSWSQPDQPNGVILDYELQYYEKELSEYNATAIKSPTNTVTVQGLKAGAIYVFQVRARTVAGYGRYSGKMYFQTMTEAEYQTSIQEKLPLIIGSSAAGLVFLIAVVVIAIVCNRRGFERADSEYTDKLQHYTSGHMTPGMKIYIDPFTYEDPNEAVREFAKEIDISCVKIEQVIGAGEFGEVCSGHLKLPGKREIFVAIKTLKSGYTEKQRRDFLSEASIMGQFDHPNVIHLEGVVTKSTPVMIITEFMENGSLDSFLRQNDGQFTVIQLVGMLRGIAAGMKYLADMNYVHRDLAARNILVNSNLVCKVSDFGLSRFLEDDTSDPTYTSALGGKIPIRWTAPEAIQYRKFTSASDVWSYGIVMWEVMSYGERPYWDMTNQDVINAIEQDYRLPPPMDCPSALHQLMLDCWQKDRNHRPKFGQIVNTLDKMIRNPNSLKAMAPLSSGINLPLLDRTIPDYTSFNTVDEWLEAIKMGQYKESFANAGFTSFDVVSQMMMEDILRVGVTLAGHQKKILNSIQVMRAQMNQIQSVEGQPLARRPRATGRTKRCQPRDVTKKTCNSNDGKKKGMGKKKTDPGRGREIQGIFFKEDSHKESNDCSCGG
Assay Comment: phosphorylation enrichment, bacterial display (enrichment ratio); higher = better substrate or ligand; peptides without Tyr show the background;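 also: 11-residue human phosphosite peptides and single-mutation variants displayed on the E. coli surface, counted by deep sequencing, each peptide's frequency after selection divided by its frequency in the unselected input library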;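 also: frequency after pTyr selection over input frequency; kinase dosed for 20-30% of maximal phosphorylation in three min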
Please mark yes (1) if the recorded phosphorylation enrichment is equal to or greater than 0.6, and no (0) if it falls below.

Q. Identify whether the reported phosphorylation enrichment of the following sequence is 0.6 or greater: LSKDLYLISQM [LARP4_Y141]
A. yes (1)

Q. Identify whether the reported phosphorylation enrichment of the following sequence is 0.6 or greater: FGDTPYIPFRD [CDC14C_Y132]
A. no (0)

Q. Identify whether the reported phosphorylation enrichment of the following sequence is 0.6 or greater: LEFGDYHPLKP [VPS35L_Y32]
A. yes (1)

Q. Identify whether the reported phosphorylation enrichment of the following sequence is 0.6 or greater: IGEGTYGQVYK [CDK13_Y716]
A. yes (1)

Q. Identify whether the reported phosphorylation enrichment of the following sequence is 0.6 or greater: LCRYGYANTSE [SI_Y1233]
A. yes (1)

Q. Identify whether the reported phosphorylation enrichment of the following sequence is 0.6 or greater: DNLSNYVFQGQ [GRIN2A_Y978_N976S]
A. yes (1)

Q. Identify whether the reported phosphorylation enrichment of the following sequence is 0.6 or greater: EEKKKYYDTKI [CASP5_Y103]
A. no (0)

Q. Identify whether the reported phosphorylation enrichment of the following sequence is 0.6 or greater: GMRHGHGVRQS [JPH2_Y141_Y141H]
A. no (0)

Q. Identify whether the reported phosphorylation enrichment of the following sequence is 0.6 or greater: PNEAVYTKMMT [G6PD_Y401]
A. no (0)

Q. Identify whether the reported phosphorylation enrichment of the following sequence is 0.6 or greater: DVFVSYDCGKS [SORL1_Y139_Y141C_YF]
A. no (0)

Q. Identify whether the reported phosphorylation enrichment of the following sequence is 0.6 or greater: SKLTIYDARPS [MTM1_Y277]
A. yes (1)

Q. Identify whether the reported phosphorylation enrichment of the following sequence is 0.6 or greater: DWLRRYLENGK [HLA-A_Y195_E190D]
A. yes (1)

Q. Identify whether the reported phosphorylation enrichment of the following sequence is 0.6 or greater: SDYYAYSPVQE [H6PD_Y449_R453Q]
A. yes (1)

Q. Identify whether the reported phosphorylation enrichment of the following sequence is 0.6 or greater: GFQPEYGQPAG [SYP_Y278_D277E_YF]
A. no (0)

Q. Identify whether the reported phosphorylation enrichment of the following sequence is 0.6 or greater: DYSLKYATDIP [APC_Y1183]
A. no (0)

Q. Identify whether the reported phosphorylation enrichment of the following sequence is 0.6 or greater: KAIMTYVFSFF [ACTN4_Y260_S262F_YF]
A. no (0)

Q. Identify whether the reported phosphorylation enrichment of the following sequence is 0.6 or greater: PQGVSYIYTID [DCX_Y103_R102S]
A. yes (1)

Q. Identify whether the reported phosphorylation enrichment of the following sequence is 0.6 or greater: AACQHYGVRTC [NR4A2_Y275]
A. no (0)

Q. Identify whether the reported phosphorylation enrichment of the following sequence is 0.6 or greater: LDFNEYVRDLN [HPRT1_Y198_F199V_YF]
A. yes (1)

Q. Identify whether the reported phosphorylation enrichment of the following sequence is 0.6 or greater: EFGRRYGFSCQ [CCDC93_Y209_R213C_YF]
A. no (0)

Q. Identify whether the reported phosphorylation enrichment of the following sequence is 0.6 or greater: VKANTYEKYWP [GATM_Y100]
A. yes (1)

Q. Identify whether the reported phosphorylation enrichment of the following sequence is 0.6 or greater: LYSNAYLSDLA [ALDH1A1_Y119_N121S]
A. yes (1)

Q. Identify whether the reported phosphorylation enrichment of the following sequence is 0.6 or greater: YQLPYYNTVPS [BMPR1A_Y458_M460T]
A. yes (1)

Q. Identify whether the reported phosphorylation enrichment of the following sequence is 0.6 or greater: MKKMHYVDPDH [ST3GAL5_Y99]
A. no (0)

Q. Identify whether the reported phosphorylation enrichment of the following sequence is 0.6 or greater: CTTIHYTFMCN [TP53_Y234_N235T_YF]
A. no (0)

Q. Identify whether the reported phosphorylation enrichment of the following sequence is 0.6 or greater: SLIDGYYRLTE [JAK2_Y372_A377E]
A. no (0)

Q. Identify whether the reported phosphorylation enrichment of the following sequence is 0.6 or greater: PINEPYGDDMD [JUP_Y693]
A. yes (1)

Q. Identify whether the reported phosphorylation enrichment of the following sequence is 0.6 or greater: WCKPPYFSCAV [MMS22L_Y28]
A. no (0)

Q. Identify whether the reported phosphorylation enrichment of the following sequence is 0.6 or greater: QAEELYFGKMG [YES1_Y159_W158L]
A. yes (1)

Q. Identify whether the reported phosphorylation enrichment of the following sequence is 0.6 or greater: MSLRSYGSREG [APC_Y96]
A. no (0)

Q. Identify whether the reported phosphorylation enrichment of the following sequence is 0.6 or greater: CPPKVYELMRA [ABL2_Y515]
A. yes (1)

Q. Identify whether the reported phosphorylation enrichment of the following sequence is 0.6 or greater: LSGVIYVILWK [PMP22_Y153_R157W]
A. no (0)

Q. Identify whether the reported phosphorylation enrichment of the following sequence is 0.6 or greater: SVTCTYSAALN [TP53_Y126_P128A]
A. yes (1)

Q. Identify whether the reported phosphorylation enrichment of the following sequence is 0.6 or greater: EEEPVYEAEPE [HCLS1_Y360]
A. yes (1)

Q. Identify whether the reported phosphorylation enrichment of the following sequence is 0.6 or greater: ILLAGYLVMVI [SLC28A3_Y113]
A. yes (1)

Q. Identify whether the reported phosphorylation enrichment of the following sequence is 0.6 or greater: KPMDTYYDSTR [DYNC2H1_Y2230]
A. yes (1)

Q. Identify whether the reported phosphorylation enrichment of the following sequence is 0.6 or greater: GRVYVYHLSEQ [ITGAE_Y551_R552H]
A. no (0)

Q. Identify whether the reported phosphorylation enrichment of the following sequence is 0.6 or greater: IPVNGYQPVPA [ROR2_Y824_V819I]
A. no (0)

Q. Identify whether the reported phosphorylation enrichment of the following sequence is 0.6 or greater: FADIAYNFHHG [PAH_Y166_R169H_YF]
A. no (0)

Q. Identify whether the reported phosphorylation enrichment of the following sequence is 0.6 or greater: CTTIHKNFMCN [TP53_Y234_Y234K_YF]
A. no (0)

Q. Identify whether the reported phosphorylation enrichment of the following sequence is 0.6 or greater: SDQPDYDSVAS [GIT2_Y392_N387S]
A. yes (1)

Q. Identify whether the reported phosphorylation enrichment of the following sequence is 0.6 or greater: KLPYPYDDPFS [GPX2_Y127]
A. no (0)

Q. Identify whether the reported phosphorylation enrichment of the following sequence is 0.6 or greater: WHHIFYNELRV [ACTG1_Y91_T89I]
A. yes (1)

Q. Identify whether the reported phosphorylation enrichment of the following sequence is 0.6 or greater: GGGGSYNDFGN [HNRNPA1_Y312]
A. no (0)

Q. Identify whether the reported phosphorylation enrichment of the following sequence is 0.6 or greater: GPIEVYLCPEE [E2F3_Y349]
A. no (0)

Q. Identify whether the reported phosphorylation enrichment of the following sequence is 0.6 or greater: WEPFGYAVTRC [PTPRT_Y412]
A. no (0)

Q. Identify whether the reported phosphorylation enrichment of the following sequence is 0.6 or greater: PATYTYDEYKK [COL8A2_Y648]
A. yes (1)

Q. Identify whether the reported phosphorylation enrichment of the following sequence is 0.6 or greater: GDEVEYMLVSF [GCLC_Y53]
A. yes (1)

Q. Identify whether the reported phosphorylation enrichment of the following sequence is 0.6 or greater: AEQDWYHGAIP [FER_Y461]
A. no (0)
